Below: a set of entries, each annotated with reported EC50.
- targetEntity: porcine beta-2 adrenoceptor (Sus scrofa, UniProt Q28997)
- Sequence (Q28997 whole entry): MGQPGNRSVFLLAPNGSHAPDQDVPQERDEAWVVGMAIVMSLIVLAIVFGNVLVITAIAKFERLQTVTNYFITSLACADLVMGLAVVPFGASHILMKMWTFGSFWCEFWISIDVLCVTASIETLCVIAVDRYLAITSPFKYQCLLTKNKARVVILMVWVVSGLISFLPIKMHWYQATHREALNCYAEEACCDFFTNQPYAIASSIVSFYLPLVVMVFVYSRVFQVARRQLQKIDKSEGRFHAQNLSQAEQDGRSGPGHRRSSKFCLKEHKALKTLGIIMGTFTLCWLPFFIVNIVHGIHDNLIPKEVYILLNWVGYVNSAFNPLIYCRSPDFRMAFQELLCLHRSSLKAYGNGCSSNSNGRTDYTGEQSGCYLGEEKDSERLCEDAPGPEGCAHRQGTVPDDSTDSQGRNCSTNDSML
- protocol: cAMP assay in CHO cells transfected with the porcine beta-2 adrenoceptor (DiscoveRx Hit Hunter cAMP II)
- statedConditions: CHO cells transfected with porcine beta-2 adrenoceptor, 30 minutes incubation with compound

{"compound": "CC(CCc1nccs1)N[C@@H]1CCn2c(=O)[nH]c3cccc(c32)[C@H]1O (mixture of isomers) [Example 24b]", "EC50, nM": 79}
{"compound": "CC(CCn1cccn1)NC1CCn2c(=O)[nH]c3cccc(c32)C1O (stereo not shown)", "EC50, nM": 98}
{"compound": "CC(CCc1cc(Cl)cc2cc[nH]c12)N[C@@H]1CCn2c(=O)[nH]c3cccc(c32)[C@H]1O (mixture of isomers)", "EC50, nM": 2}
{"compound": "Cc1c(CC[C@@H](C)N[C@@H]2CCn3c(=O)[nH]c4cccc(c43)[C@H]2O)cnn1C", "EC50, nM": 2.8}

----------
- targetEntity: porcine beta-2 adrenoceptor (Sus scrofa, UniProt Q28997)
- Construct: expressed in transfected cells; host or cells: CHO cells
- protocol: cAMP assay in CHO cells transfected with the porcine beta-2 adrenoceptor (DiscoveRx Hit Hunter cAMP II)
- Type: cell-based
- statedConditions: CHO cells transfected with porcine beta-2 adrenoceptor, 30 minutes incubation with compound
- Description: CHO cells transfected with the bovine or porcine beta-2 adrenceptors were maintained in culture in DMEM/HAMS F12+10% FBS+2 mM glutamine+500 μg/ml geneticin (for the porcine receptor the medium was supplement with 1.5 mM HEPES) at 37° C. with a 5% CO2 atmosphere. […] Duplicate samples were run for each experimental compound and the data generated was analysed using EC50 analysis software in Graphpad Prism.
pEC50: −log10 of the molar value.
Below: a set of entries, each annotated with reported pEC50.

{"compound": "CC(CCc1cnn(C)c1)N[C@@H]1CCn2c(=O)[nH]c3cccc(c32)[C@H]1O (single isomer, unassigned) [Example 56]", "targetEntity": "porcine beta-2 adrenoceptor (Sus scrofa, UniProt Q28997)", "resultComparator": "=", "pEC50": 8.57}
{"compound": "CC(CCc1c[nH]c2cc(C#N)ccc12)N[C@@H]1CCn2c(=O)[nH]c3cccc(c32)[C@H]1O (single isomer, unassigned) [Example 60]", "targetEntity": "porcine beta-2 adrenoceptor (Sus scrofa, UniProt Q28997)", "resultComparator": "=", "pEC50": 7.89}
{"compound": "COc1cncc(CCC(C)N[C@@H]2CCn3c(=O)[nH]c4cccc(c43)[C@H]2O)c1 (single isomer, unassigned) [Example 73]", "targetEntity": "porcine beta-2 adrenoceptor (Sus scrofa, UniProt Q28997)", "resultComparator": "=", "pEC50": 9.10}
{"compound": "CC(CCc1c[nH]c2ccncc12)N[C@@H]1CCn2c(=O)[nH]c3cccc(c32)[C@H]1O (single isomer, unassigned) [Example 62]", "targetEntity": "porcine beta-2 adrenoceptor (Sus scrofa, UniProt Q28997)", "resultComparator": "=", "pEC50": 7.55}
{"compound": "COc1ncc(CC[C@@H](C)N[C@@H]2CCn3c(=O)[nH]c4cccc(c43)[C@H]2O)s1 [Example 67]", "targetEntity": "porcine beta-2 adrenoceptor (Sus scrofa, UniProt Q28997)", "resultComparator": "=", "pEC50": 8.57}
{"compound": "CC(CCc1c[nH]c2ccc(Cl)cc12)N[C@@H]1CCn2c(=O)[nH]c3cccc(c32)[C@H]1O (single isomer, unassigned) [Example 21a]", "targetEntity": "porcine beta-2 adrenoceptor (Sus scrofa, UniProt Q28997)", "resultComparator": "<", "pEC50": 5.00}
